- testedSystem: CaHse1
- experimentalDetails: SPOT peptide array binding signal intensity (averaged, normalized) (arbitrary units (background-subtracted, floor 0; scale differs between SH3 domains)); higher = stronger binding of the SH3 domain to the peptide
measuredEndpoint: SPOT peptide array binding signal intensity

[
  {
    "binder": "WTQRRGPLVVYAEDN",
    "valueReported": 6.25
  },
  {
    "binder": "RSKRLFPVRPMATAH",
    "valueReported": 14.2
  },
  {
    "binder": "TKFRISLGLPVGAIM",
    "valueReported": 193
  },
  {
    "binder": "TKIRRRPQQPLTDFT",
    "valueReported": 6.5
  }
]
